System: HCV 1a RLuc cells (dicistronic genotype 1a H77 replicon, RLuc reporter)
Test: microbe, parasite or virus in culture
Type: cell-based
Settings: Hepatitis C virus, genotype 1a H77 RLuc replicon; read-out: 1a

compound	EC50
COC(=O)N[C@H](C(=O)N1C[C@@H](C)C[C@H]1c1ncc(-c2cc3c4c(c2)OCc2cc(-c5cnc([C@@H]6C[C@H](C)CN6C(=O)[C@H](NC(=O)OC)c6ccccc6)[nH]5)cc(c2-4)OC3)[nH]1)C(C)C [Example 564]	0.001 to 0.999 nM
COC[C@H]1C[C@@H](c2ncc(-c3ccc4c(c3)COc3cc5c(ccc6nc([C@@H]7C[C@H](C)CN7C(=O)[C@@H](NC(=O)OC)C(C)C)[nH]c65)cc3-4)[nH]2)N(C(=O)[C@H](NC(=O)OC)c2ccccc2)C1 [Example 622]	0.001 to 0.999 nM

This collection of values is drawn from patent US10344019B2.
